Test method notes: qHTS RealTime-Glo MT Cell Viability Assay in HEK293 cells - 24 hour (AID 1224886); also: nearly all actives have a fitted effect of over 50% in size
Condition summary: RealTime-Glo luminescence; series mostly up to 76.8 µM
Records with an inconclusive call do not appear. Activity calls are given as the source filed them. Calls follow the shape of the dose curve; as a rule, active = well fitted cell-killing curve with a large enough effect in the repeat runs; inconclusive = weak or mixed curves, or effect the other way; inactive = flat fitted curve, though single readings scatter.
Valid outcomes are listed here; reply with one: active, inactive

### Prompt For this compound, state the assay outcome: O=c1[nH]sc2ccccc12
### Response active

### Prompt Same again, this time with CCC(CN)=C(c1ccccc1)c1ccccc1
### Response inactive

### Prompt Next: CCc1oc2ccccc2c1C(=O)c1cc(Br)c(O)c(Br)c1
### Response inactive

### Prompt COc1ccc(CN2CCN(C(c3ccc(F)cc3)c3ccc(F)cc3)CC2)c(OC)c1OC , same question.
### Response active
